experiment: Pharmacokinetics and bioavailability in rats; format: in vivo; settings: both sexes, Sprague-Dawley, rat, plasma, po, 5 mg/kg, SD rats, PO 5 mg/kg; read-out: Cmax
Where a name gives a salt, the structure may show the parent alone.
Test readout: Cmax (ng/mL)
Report only the number, with the unit ng/mL understood.

Exercise: Name the reported Cmax value associated with the compound CNc1ncc(C#Cc2cc(C(=O)Nc3cc(-n4cnc(C)c4)cc(C(F)(F)F)c3)ccc2C)cn1 [D800 hydrochloride salt]
Key: 11000

###

system: K562R cells (imatinib-resistant cell line); assay: tumor cell proliferation, MTT or CCK8 assay, 72 h incubation; format: cell-based; details: Homo sapiens, K-562R, imatinib-resistant K562R, read-out: IC50 on tumor cell proliferation, K562R cells
Reported pIC50 values for a set of molecules
Quick note: pIC50 means taking -log10 of the concentration in moles per liter.

Some solved entries appear below for comparison.
Exercise: Name the reported pIC50 value associated with the molecule "Cc1ccc(C(=O)Nc2ccc(CN3CCN(CCO)CC3)c(C(F)(F)F)c2)cc1C#Cc1cnc2ccnn2c1"
Key: 7.36

Exercise: Also "Cc1ncn(-c2cc(NC(=O)c3ccc(C)c(C#Cc4cnc5ccnn5c4)c3)cc(C(F)(F)F)c2)n1" , if possible.
Key: 6.85

Exercise: Also "Cc1ccc(C(=O)Nc2ccc(CN3CCN(C)CC3)c(C(F)(F)F)c2)cc1C#Cc1cnc2[nH]ncc2c1" , if possible.
Key: 7.85

// switching to the query molecule
Exercise: Name the reported pIC50 value associated with the molecule "Cc1ccc(C(=O)Nc2ccc(CN3CC[C@@H](N(C)C)C3)c(C(F)(F)F)c2)cc1C#Cc1cnc2[nH]ncc2c1"
Key: 8.24
